experimental.details: qHTS for Inhibitors of human tyrosyl-DNA phosphodiesterase 1 (TDP1): qHTS in cells in presence of CPT; further: nearly all actives have a fitted effect of over 55% in size; further: potency means the concentration at half of the fitted maximal effect
condition.details: chicken DT40 Tdp1-/-;hTDP1 cells + 20 nM CPT, ATP luminescence, 48 h; series mostly up to 46.2 µM
Hit rate of the full screen: of about 420,000 compounds, about 50,000 (12%) were called active. Roughly 26% stayed inconclusive and do not appear here. What follows is part of a selection rich in actives, with near analogues and random picks from the rest.

>  <compound>
COc1ccc(NC(=O)N2CCCC2C(=O)NCc2ccccc2Cl)cc1 (configuration not stated)

>  <Potency>
inactive

$$$$
>  <compound>
Cc1cc(C(=O)COc2ccccc2Cl)c(C)n1C1CC1

>  <Potency>
13 µM (active)

$$$$
>  <compound>
COC(=O)CN1C(=O)[C@H]2[C@@H](/C=C/c3ccccc3)N3C(=O)CN(Cc4ccccc4)C(=O)[C@@]3(Cc3ccccc3)[C@H]2C1=O

>  <Potency>
inactive

$$$$
>  <compound>
CC(=O)c1ccc(N2CCN(S(=O)(=O)c3ccc4c(c3)CC(=O)N4C)CC2)cc1

>  <Potency>
inactive

$$$$
>  <compound>
CCCc1nc(SCC(=O)Nc2ccccc2OC)c2c(=O)n(C)c(=O)n(C)c2n1

>  <Potency>
14.6 µM (active)

$$$$
>  <compound>
CCCc1nc(SCC(=O)N2CCCC2)c2c(=O)n(C)c(=O)n(C)c2n1

>  <Potency>
inactive

$$$$
>  <compound>
O=C(O)/C=C/C(=O)NNc1ccc([N+](=O)[O-])cc1

>  <Potency>
20.6 µM (active)

$$$$
>  <compound>
CCc1nc(SCC(=O)Nc2ccccc2OC)n[nH]1

>  <Potency>
inactive

$$$$
>  <compound>
COc1ccc(Cc2nc3ccc(C(=O)NCc4ccccc4C)cc3o2)cc1

>  <Potency>
20.6 µM (active)

$$$$
>  <compound>
CNC(=S)Nc1ccc([N+](=O)[O-])cc1

>  <Potency>
inactive

$$$$
>  <compound>
CSc1sc(C)cc1C1C(C#N)=C(N)N(c2cccnc2)C2=C1C(=O)CCC2 (configuration not stated)

>  <Potency>
11.6 µM (active)

$$$$
>  <compound>
Cc1cccc(NC(=O)CN2CCN(CC(=O)NCC3(N4CCCCC4)CCCCC3)CC2)c1C

>  <Potency>
inactive

$$$$
>  <compound>
COCCNC(=O)c1ccc2nc(Cc3ccc(OC)c(OC)c3)oc2c1

>  <Potency>
inactive

$$$$
>  <compound>
CCOC(=O)c1cnc2nc(SCc3ccccc3Cl)[nH]n2c1=O

>  <Potency>
inactive

$$$$
>  <compound>
Cc1cc(C(=O)COc2ccc(Br)cc2F)c(C)n1C1CC1

>  <Potency>
7.31 µM (active)

$$$$
>  <compound>
CCn1ccnc1CN(C)C(=O)c1ccc2nc(Cc3ccc(OC)cc3)oc2c1

>  <Potency>
inactive

$$$$
>  <compound>
COc1cccc(-c2nc(Nc3ccncc3)c3ccccc3n2)c1

>  <Potency>
8.2 µM (active)

$$$$
>  <compound>
COc1cc2c(C(=O)O)c(C)n(C)c2c2ccccc12

>  <Potency>
inactive

$$$$
>  <compound>
COc1ccc(Cc2nc3ccc(C(=O)NCc4ccc(OC)cc4OC)cc3o2)cc1

>  <Potency>
16.4 µM (active)

$$$$
>  <compound>
Cc1sc(C2C(C#N)=C(N)N(c3cccc(Cl)c3)C3=C2C(=O)CCC3)cc1CN1CCOCC1 (configuration not stated)

>  <Potency>
inactive

$$$$
>  <compound>
CN[C@@H]1[C@@H](O)[C@@H](O[C@@H]2[C@H](O)[C@H](O[C@H]3OC(CN)=CC[C@H]3N)[C@@H](N)C[C@H]2N)OCC1(C)O (some centres not stated)

>  <Potency>
inactive

$$$$
>  <compound>
COc1cc(Nc2nc(-c3ccc(OC)c(OC)c3)nc3ccccc23)cc(OC)c1

>  <Potency>
5.8 µM (active)

$$$$
>  <compound>
O=c1c(-c2ccccc2Cl)c[nH]n1-c1ccccc1

>  <Potency>
inactive

$$$$
>  <compound>
CCC(C)(C)NC(=O)C(c1ccc(O)cc1)N(Cc1ccco1)C(=O)CCC(=O)Nc1ccccn1 (configuration not stated)

>  <Potency>
inactive

$$$$
>  <compound>
Cc1ccc(-c2ccc(/C=N/NC(=O)CN3CCOCC3)o2)cc1[N+](=O)[O-]

>  <Potency>
23.1 µM (active)

$$$$
>  <compound>
Cc1cccc(NC(=O)CN2CCN(C(=O)C3CCN(C(=O)/C=C/c4ccccc4)CC3)CC2)c1C

>  <Potency>
16.4 µM (active)

$$$$
>  <compound>
CCc1ccc(C2C(C#N)=C(N)N(N(C)C)C3=C2C(=O)CCC3)s1 (configuration not stated)

>  <Potency>
inactive

$$$$
>  <compound>
COc1cccc(C(=O)Oc2cc(C)[nH]c(=O)c2[N+](=O)[O-])c1

>  <Potency>
inactive

$$$$
>  <compound>
CCc1ccc(C(=O)C(C)OC(=O)CN2C(=O)NC3(CCCC3)C2=O)cc1 (configuration not stated)

>  <Potency>
inactive

$$$$
>  <compound>
Cc1ccc(NC(=O)CN2CCC(C(N)=O)CC2)cc1[N+](=O)[O-]

>  <Potency>
inactive

$$$$
>  <compound>
COc1ccc(NC(=O)CSc2nnc(C3CC3)n2C)cc1S(=O)(=O)N1CCCCC1

>  <Potency>
inactive

$$$$
>  <compound>
CC(=O)c1ccc(N2CCN(C(=O)C3CCN(S(=O)(=O)c4ccc5c(c4)CC(C)N5C(=O)C4CC4)CC3)CC2)cc1 (configuration not stated)

>  <Potency>
11.6 µM (active)

$$$$
>  <compound>
Cc1ccc(Cc2nnc(SCC(=O)Nc3ccccc3C)[nH]c2=O)cc1

>  <Potency>
inactive

$$$$
>  <compound>
CC(NC(=O)c1ccccc1C(=O)O)c1ccc(-n2ccnc2)cc1 (configuration not stated)

>  <Potency>
inactive

$$$$
>  <compound>
O=C(CCNC(=O)c1ccccc1Cl)NCc1ccco1

>  <Potency>
inactive

$$$$
>  <compound>
COc1ccc(Cc2nc3ccc(C(=O)NCc4ccccc4Cl)cc3o2)cc1

>  <Potency>
16.4 µM (active)

$$$$
>  <compound>
COc1ccccc1C(=O)NCC(=O)OCC(=O)Nc1nnc(-c2ccccc2)o1

>  <Potency>
inactive

$$$$
>  <compound>
O=C1NC(O)CCN1C1CC(O)C(CO)O1 (configuration not stated)

>  <Potency>
inactive

$$$$
>  <compound>
CSCCNC(=O)c1ccc2nc(Cc3ccccc3F)oc2c1

>  <Potency>
inactive

$$$$
>  <compound>
O=C(Cc1ccccc1)NNS(=O)(=O)c1ccc([N+](=O)[O-])cc1

>  <Potency>
inactive

$$$$
>  <compound>
CCc1c(C)c2ccc(OC3CCCCC3=O)cc2oc1=O (configuration not stated)

>  <Potency>
inactive

$$$$
>  <compound>
Cc1ccc(C)c(NC2=NCC(=O)N2c2ccc3c(c2)OCCO3)c1

>  <Potency>
inactive

$$$$
